Assay: First-in-human phase 1 study: plasma pharmacokinetics of Compound 1
Assay type: in vivo
Conditions: both sexes, human, plasma, intravenous, 4 mg/kg, human plasma, single dose, 24 hours, Cohort 1b (4 mg/kg), compartmental (2) analysis, ± SE
RECORDED METRIC: clearance (mL/min/kg)

COMPOUND	REPORTED MEASUREMENT
CN[C@@H]1[C@@H](O)[C@@H](O[C@@H]2[C@@H](O)[C@H](O[C@H]3OC(CNCCO)=CC[C@H]3N)[C@@H](N)C[C@H]2NC(=O)[C@@H](O)CCN)OC[C@]1(C)O [Compound 1]	1.03

---

Conditions: rat, in vivo, 100 mg/kg
RECORDED METRIC: Body weight Day 10 (g)

COMPOUND	REPORTED MEASUREMENT
NC[C@H]1O[C@H](O[C@H]2[C@H](O)[C@@H](O[C@H]3O[C@H](CO)[C@@H](O)[C@H](N)[C@H]3O)[C@H](N)C[C@@H]2N)[C@H](N)C[C@@H]1O [Tobramycin, tobramycin]	293
